molecular target: hCB2R (Homo sapiens (Human)); assay: [35S]GTPγS binding assay, hCB2R CHO cell membranes; type: biochemical; conditions: percentage of HU-308 response at 1 μM
Sequence (P34972 whole entry): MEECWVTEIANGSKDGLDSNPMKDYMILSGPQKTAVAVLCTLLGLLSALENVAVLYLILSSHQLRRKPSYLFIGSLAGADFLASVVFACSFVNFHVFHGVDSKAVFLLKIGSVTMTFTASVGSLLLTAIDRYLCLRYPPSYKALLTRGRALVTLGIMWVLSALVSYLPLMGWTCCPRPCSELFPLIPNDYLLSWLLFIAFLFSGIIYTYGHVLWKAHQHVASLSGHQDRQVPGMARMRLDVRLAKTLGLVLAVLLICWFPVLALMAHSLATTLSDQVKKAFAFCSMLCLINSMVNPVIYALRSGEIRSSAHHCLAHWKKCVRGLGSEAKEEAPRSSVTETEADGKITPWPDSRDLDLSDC
Reported E(max) % is given for each of the following molecules.
experimental.endpoint: E(max) % (%)

CCCCCCC(C)(C)c1cc(O)c(C2(O)C3(C)CCC(C3)C2(C)C)c(OC)c1 (centres unmarked)	105.05
CCCCCCC(C)(C)c1cc(OC)c([C@]2(O)C3(C)CCC(C3)C2(C)C)c(OC)c1 (some centres unmarked)	89.63
CCCCCCC(C)(C)c1cc(OC)c([C@@]2(O)C3(C)CCC(C3)C2(C)C)c(OC)c1 (some centres unmarked)	87.15
CCCCCCC(C)(C)c1cc(OC)c([C@@H]2C=C(CO)[C@@H]3C[C@H]2C3(C)C)c(OC)c1 [HU-308, reference compound]	100
CCCCCc1cc(OC)c(C2(O)C3(C)CCC(C3)C2(C)C)c(OC)c1 (single isomer, unassigned) [Compound 1a]	24.08
CCCCCc1cc(OC)c(C2(O)C3(C)CCC(C3)C2(C)C)c(OC)c1 (single isomer, unassigned) [Compound 1b]	65.1
CCCCCCc1ccc(OC)c(C2(O)C3(C)CCC(C3)C2(C)C)c1OC (single isomer, unassigned)	46.2
CCCCCCC(C)(C)c1cc(OC)c(C2(O)C3(C)CCC(C3)C2(C)C)c(OC)c1F (single isomer, unassigned)	118.7

* * *

target: hCB2R (Homo sapiens (Human)); test: [3H]CP-55,940 competition displacement binding, membranes of CHO-K1 cells expressing human CB2R
experimental.endpoint: Ki (nM)

COc1cc(C)cc(OC)c1C1(O)C2(C)CCC(C2)C1(C)C (single isomer, unassigned)	233

* * *

Reported Ki is given for each of the following compounds.
target: mCB1R (Mus musculus (Mouse), UniProt P47746); assay: [3H]CP-55,940 competition displacement binding, crude membranes from mouse brain; conditions: displacement of [3H]CP-55,940; NB = No binding detected at concentrations up to 10 μM; read-out: Ki (nM) mCB1R
Sequence (P47746 whole entry): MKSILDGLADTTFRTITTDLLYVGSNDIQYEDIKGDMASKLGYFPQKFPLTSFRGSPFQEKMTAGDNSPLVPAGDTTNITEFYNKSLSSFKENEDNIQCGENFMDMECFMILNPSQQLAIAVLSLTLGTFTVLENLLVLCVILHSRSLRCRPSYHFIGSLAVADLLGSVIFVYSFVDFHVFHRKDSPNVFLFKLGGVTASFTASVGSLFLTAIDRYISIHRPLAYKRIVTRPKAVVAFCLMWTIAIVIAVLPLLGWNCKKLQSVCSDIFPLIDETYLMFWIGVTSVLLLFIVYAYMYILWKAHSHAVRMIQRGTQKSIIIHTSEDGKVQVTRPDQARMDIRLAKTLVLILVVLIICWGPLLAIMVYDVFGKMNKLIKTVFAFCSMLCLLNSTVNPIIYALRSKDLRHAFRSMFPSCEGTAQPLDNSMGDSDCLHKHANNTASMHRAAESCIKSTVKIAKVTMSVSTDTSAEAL
experimental.endpoint: Ki

CCCCCCC(C)(C)c1cc(OC)c(C2(O)C3(C)CCC(C3)C2(C)C)c(OC)c1F (single isomer, unassigned) [Compound 4d]	> 10000 nM
CCCc1ccc(OC)c(C2(O)C3(C)CCC(C3)C2(C)C)c1 (single isomer, unassigned)	> 10000 nM
CCCCCc1cc(OC)c(C2(O)C3(C)CCC(C3)C2(C)C)c(OC)c1 (single isomer, unassigned)	2290 nM
CCCCCCC(C)(C)c1cc(O)c(C2(O)C3(C)CCC(C3)C2(C)C)c(OC)c1 (stereo not drawn) [Compound 5d]	451 nM
CCCCCc1ccc(OC)c(C2(O)C3(C)CCC(C3)C2(C)C)c1 (single isomer, unassigned)	> 10000 nM
CCC(C)(C)c1ccc(OC)c(C2(O)C3(C)CCC(C3)C2(C)C)c1 (single isomer, unassigned)	> 10000 nM
CCCCCCC(C)(C)c1cc(OC)c([C@@]2(O)C3(C)CCC(C3)C2(C)C)c(OC)c1 (stereo partly drawn)	> 10000 nM
CCCCCCc1ccc(OC)c(C2(O)C3(C)CCC(C3)C2(C)C)c1OC (single isomer, unassigned)	> 10000 nM
COc1cc(C)cc(OC)c1C1(O)C2(C)CCC(C2)C1(C)C (single isomer, unassigned)	> 10000 nM

Data credit: patent US20250002435A1
